experiment: E. coli growth modulation, two-sided OD650, primary screen, E. coli filamentation project, strain DRC41, 24 h (AID 1093); settings: OD650, 24 h, higher = more signal, called active from +8 up or from −8 down;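 further: MC1000 strain lacking acrAB efflux and sulA so SOS filamentation is blocked; test concentration not given here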
property-measured: z-score
Give bare numbers.

Take a look at these entries with their results.
| smiles-representation | z-score |
| --- | --- |
| Cc1c(-c2ccc(-c3ccc(Cl)c(Cl)c3)o2)nc(-c2ccccc2)c2c1CO[Si]2(C(C)C)C(C)C | -1.34 |
| COc1ccc(C#Cc2ccc3c(c2)[C@]2(C(=O)N3)[C@H](c3ccc(OCCO)cc3)N3[C@H](c4ccccc4)[C@H](c4ccccc4)OC(=O)[C@H]3[C@@H]2C(=O)O)cc1 | 2.57 |
| COC(=O)[C@@]1(CCC(=O)OC(C)(C)C)N=C(c2ccc(OCCCO)cc2)O[C@H]1c1ccccc1CN=[N+]=[N-] | 1.08 |

Looking up C=C(COC)C(=O)CC[C@@H](OC(=O)c1cccnc1)c1cccc(OCCO)c1 , I found its z-score recorded as 0.726
